I'd be grateful if you could share measured %Inh for these entries.
- Test system: MEK4
- Construct: gene MAP2K4
- Experimental conditions: concentration: 1 μM, replicates: in singlicate; n = 1
Numbers only; they are read as %.

QUERY: Answer with %Inh of `Cl.c1ccc(Cn2cnc3cc(Nc4ncnc5ccccc45)ccc32)cc1` measured for MEK4.
RESULT: 8

QUERY: Give %Inh; test system MEK4; molecule `COc1ccc(-c2cc3c(C)nc(N)nc3n([C@H]3CC[C@H](O)CC3)c2=O)cn1`
RESULT: 0

QUERY: # assay system MEK4: give %Inh of `COc1cccc(-n2cnc3c(N)ncnc32)c1`
RESULT: 36

QUERY: Report measured %Inh on MEK4; entry: `FC(F)(F)c1ccc(-c2ncn(CCCN3CCOCC3)c2-c2ccncc2)cc1`
RESULT: 3

QUERY: Give MEK4 %Inh for the following molecule: `COc1ccc(-n2cnc3c(N)ncnc32)cc1`
RESULT: 29

QUERY: Look up MEK4 data: %Inh of `O=C(NCc1cccs1)c1cc(C(=O)c2c(Cl)cccc2Cl)c[nH]1` , then report it.
RESULT: 0

QUERY: Lab note: record %Inh of `CN1C(=O)C(Nc2ccccc2)=C(c2ccccc2)C1=O` tested on MEK4.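 Also: KINOMEscan kinase panel screen.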
RESULT: 18

QUERY: Recall the reported %Inh of `CN1C(=O)C(Nc2cc(Cl)c(O)c(Cl)c2)=C(c2ccc(Cl)cc2)C1=O` on MEK4 and write it down.
RESULT: 0

QUERY: Report %Inh from MEK4 testing of `CCC(=O)c1c(-c2ccccc2)c2cc(Cl)ccc2c(=O)n1Cc1cc(C(=O)NC2CC2)n(C)n1`
RESULT: 8
